From: patent US20240270846A1

biological target: T1, biotin-labeled human CD137 fused to human IgG1 Fc fragment (human CD137-Fc) (human, biotin-labeled); assay: competitive bead ELISA, biotin-human CD137-Fc on beads, 100 ng IgG, competitor free CD3 epsilon peptide 62.5 pmol
T1 construct: also called biotin-human CD137-Fc
For each entry below, report its ELISA signal with Free CD3e 62.5 pmol value.

Consider anti-human CD137 antibody described in WO2005/035584A1 (abbreviated as B) (antibody, V domains shown, Control antibody; also called control anti-CD137 antibody) VH: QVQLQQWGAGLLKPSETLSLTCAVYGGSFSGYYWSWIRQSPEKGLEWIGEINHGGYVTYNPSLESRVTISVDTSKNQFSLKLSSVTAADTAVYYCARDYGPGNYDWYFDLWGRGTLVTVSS VL: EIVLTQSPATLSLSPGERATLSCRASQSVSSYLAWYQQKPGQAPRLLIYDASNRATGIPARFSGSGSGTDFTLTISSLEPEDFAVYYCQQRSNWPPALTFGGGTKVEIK . Its measured ELISA signal with Free CD3e 62.5 pmol is 183000

What the record says about DADU01_3#002 (antibody, human IgG1, V domains shown, also called dBBDu124) VH: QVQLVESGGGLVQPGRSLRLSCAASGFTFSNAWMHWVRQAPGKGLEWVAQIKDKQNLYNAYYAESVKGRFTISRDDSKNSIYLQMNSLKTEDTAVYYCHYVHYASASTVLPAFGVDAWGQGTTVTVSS VL: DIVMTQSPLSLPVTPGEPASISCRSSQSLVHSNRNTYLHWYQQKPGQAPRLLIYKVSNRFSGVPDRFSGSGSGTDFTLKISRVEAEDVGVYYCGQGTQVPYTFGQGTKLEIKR : ELISA signal with Free CD3e 62.5 pmol is 9970

The binder identified as DADU01_3#018 (antibody, human IgG1, V domains shown, also called dBBDu123) VH: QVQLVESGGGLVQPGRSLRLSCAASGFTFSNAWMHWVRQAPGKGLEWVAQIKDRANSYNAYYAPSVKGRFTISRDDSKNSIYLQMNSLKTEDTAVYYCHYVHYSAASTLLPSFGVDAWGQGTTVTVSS VL: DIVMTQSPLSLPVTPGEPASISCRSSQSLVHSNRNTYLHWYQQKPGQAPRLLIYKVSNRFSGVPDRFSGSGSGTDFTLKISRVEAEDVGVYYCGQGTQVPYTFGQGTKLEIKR registered its ELISA signal with Free CD3e 62.5 pmol at 9020
